Details: RP-TLC, methanol/water 80:20; standard deviation in parentheses, three determinations
measure.name: logP

                                   compound  measure_name  test_result
0  CC(C)C1COC(/C(=C\[c-]2cccc2)[c-]2cccc2)=N1.[Fe+2].[Fe+2].c1cc[cH-]c1.c1cc[cH-]c1 (stereo not shown)          logP   5.48 (0.1)
1  C(=C(/C1=NC(Cc2ccccc2)CO1)[c-]1cccc1)/[c-]1cccc1.[Fe+2].[Fe+2].c1cc[cH-]c1.c1cc[cH-]c1 (stereo not shown)          logP   6.1 (0.09)
2  CC1COC(/C(=C\[c-]2cccc2)[c-]2cccc2)=N1.[Fe+2].[Fe+2].c1cc[cH-]c1.c1cc[cH-]c1 (stereo not shown)          logP   4.76 (0.1)
3  C(=C(/C1=NC(c2ccccc2)CO1)[c-]1cccc1)/[c-]1cccc1.[Fe+2].[Fe+2].c1cc[cH-]c1.c1cc[cH-]c1 (stereo not shown)          logP   5.62 (0.2)
